System: SARS-CoV-2 S protein variant P681H PsV
Type: cell-based
Details: read-out: IC50 against SARS-CoV-2 S variant PsV P681H
pIC50: −log10 of the molar value.
metric: pIC50

# mol, observed measurement
data = [
    ("COc1c(O)cc2oc(-c3ccccc3)cc(=O)c2c1O", 4.71),
]
